# Test system: green foxtail (Se)
# Protocol details: Test Example 2: herbicidal effects by upland soil treatment;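 also: 0-5 growth inhibition grade; 5 = over 90%; 4 = 70-90%; 3 = 50-70%; 2 = 30-50%; 1 = 10-30%; 0 = under 10%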
# Assay type: in vivo
# Experimental setup: dose 100 g active ingredient per 10 ares, examined on the 21st day after treatment, standards of Table 44
# Experimental: In a 80 cm^2 plastic pot, upland soil was filled, and seeds of barnyard grass (Ec) and green foxtail (Se) were sown and covered with soil. A wettable powder prepared in accordance with Formulation Example 1 was diluted with water and uniformly applied to the soil surface by means of a small size spray at a rate of 100 l per 10 ares, so that the dose of the active ingredient would be 100 g per 10 ares. […]

# Compound, herbicidal effects, Se (green foxtail)
data = [
    ("COc1ccc(SC(=O)N(C)C(c2cncnc2C(F)(F)F)C(C)C)cc1 (racemic) [Compound 1-11]", 5),
    ("CC(C)C(c1cncnc1C(F)(F)F)N(C)C(=O)COc1cccc(Cl)c1 (racemic) [Compound 1-133]", 5),
    ("CC(Oc1ccc(Cl)cc1)C(=O)N(C)C(c1cncnc1C(F)(F)F)C(C)C (mixture of isomers) [Compound 1-116]", 4),
    ("CN(C(=O)Cc1ccccc1)C(c1ccc(F)cc1)c1cncnc1C(F)(F)F (racemic) [1-217]", 5),
    ("CCCN(C(=O)Cc1ccc(C)cc1)C(c1cncnc1C(F)(F)F)C(C)C (racemic) [Compound 1-62]", 4),
    ("CC(Oc1ccccc1)C(=O)N(C)C(c1cncnc1C(F)(F)F)C(C)C (mixture of isomers) [Compound 1-115]", 5),
    ("Cc1ccc(CC(=O)N(C)C(c2cncnc2C(F)(F)F)C(C)(C)C)cc1 (racemic) [Compound 1-55]", 5),
]
